Tested on: ACHN
Experiment: NCI tumour cell line growth inhibition, 48 h
Active and inactive are the calls of the source. Cut-off read from the data, not from the text of the source: active = GI50 up to about 1.1 µM and inactive = higher.
Measured Attribute: GI50

Reference set (8 entries):
CC(=O)OCC1OC(Nc2ccc3nc(C)n(-c4cccc(C)c4)c(=O)c3c2)C(OC(C)=O)C(OC(C)=O)C1OC(C)=O (stereo unspecified) :: > 62.5 µM (inactive)
O=C1C=CC(=O)C(N(CCO)CCO)=C1.O=C1C=CC2(O)OCCN(CCO)C2=C1 :: > 100 µM (inactive)
COc1ccc(-c2cc(C3CC3)nc(SCC(=O)O)c2C#N)cc1 :: > 100 µM (inactive)
CC[C@@]1(O)C(=O)OCc2c1cc1n(c2=O)Cc2c-1nc1ccccc1c2/C=N/NC(=O)C[N+](C)(C)C :: 0.277 µM (active)
CC(C)OP(=S)(NC(=S)c1ccccc1)OC(C)C :: > 100 µM (inactive)
COc1nc2sc3c(c2c(=O)n1CCCSSCCCn1c(OC)nc2sc4c(c2c1=O)CCCC4)CCCC3 :: > 100 µM (inactive)
CCOC(=O)C=C1CCN(C(=O)c2ccccc2)CC1 :: > 100 µM (inactive)
COc1cc([N+](=O)[O-])ccc1N1C(=O)C2c3[nH]c4ccccc4c3C3CCC(C(C)(C)C)CC3C2C1=O (stereo unspecified) :: > 100 µM (inactive)

Request: Name the reported GI50 value associated with the molecule CN(O)C(=O)Cc1ccccc1
Response: > 100 µM (inactive)
